The measured values listed here are drawn from the NTF2 design screens of Basanta et al. (2020).

Reported protease stability score values follow for various sequences
Experiment: protease stability score; higher = more stable; yeast display proteolysis, trypsin and chymotrypsin;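 further: log10 excess protease needed over predicted unfolded state with 0 meaning unfolded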
Respond with the number and no other words.

# count of solved cases: 10
query: # lookup: protease stability score of `DEESRAQSFMSKFNDNLRRGDPEKLKTYMDPNVKVQVGEKRLNGREQAARFWVEIARHVDHISVEFKSLKVTGDKIKAKAIVVLDVNGQKRRQDVVLYAQIQGDTIRLKKVDAP`
result: 1.07

query: For the sequence `DETAVRVFRKIEDAYQKGDPDKITNLLDENVEMHVGDKRVHGRETMAEHLKKQLDEIRQKIKSVTLHDKGDTIRIDVLMVEEHNGQPRESRYHVHAKIHNGKMKEREQTSVQ` , what protease stability score is on record?
result: -0.095

query: For the sequence shown here, `DDDLTRKVEKFMRNVQKGNEEELKKMMDPNVHAEVGDKVYHGREDAVEKRVTHYHEQNWRYEDIDLKVEGDRAKAKVVRVVNINGKPIRFEFSVNMRFHNGKITRINNDLPEEVLHKLKR` , give the reported protease stability score.
result: 0.118

query: State the recorded protease stability score for this entry: `DERVNREWEKFIHAFESGNESQLKRLMDKDVRLTVGDKQIEGREEMARQLKKRRDQSRVSINIESVQHDGDKVHIQFHVTNNKNGRPEKRTSVVTVEAHNGKLKEVNIDDKP`
result: 0.803

query: Request the reported protease stability score associated with `DEDAHRLVEEFWRALKDGDSEQIKELADKDVHVQVGDTKVHGREELASQVQRERDQMSVDLKIDHVELNEDHVDVEAKMVVEHNGKPKTNKAKLDFRFHNGKLQMMRRQTRQ`
result: -0.184

query: Fill in the blank: the reported protease stability score of `DEEAEKLAREFIKAVQTGDEEELNELMDPNARFRIGNKTFHGMTNAAKEFNDKRREAHIEYHITSIRVSGDHVEVKVEVHVNVNGKPVHNEVTMDFKRHNGRIRDFQVQIDEEDQKKQDK` is ____.
result: 1.29

query: I would be grateful if you could share the reported protease stability score for `DEEEAKKNVKVWEQNDPDTFNKLVDKDAKAVIGDKEVHGRSEINRIIKRLLQQADHWQVDEVHIHNGRVHISYQFVINGQRLDVRVTIELRNGRIKDVKVHFTDDEQKKRANENVR` .
result: 0.943

query: Quick one: protease stability score for `DREEQSEFAKKFLEVVMHGDPKKIRKLADPNAKADVGDKKYHGRESMAKWAHDFRKEVDHIEFKDLKVDGETARLDVVYDVNGHKERQVVVVTAHNGRVKHMQVEEG` ?
result: -0.18

query: Endpoint output: protease stability score of `DDNLNRKVKKFWKVLQKGNPHEAKKYFDPNAHIVIGDQRIHGMDKFNRRMEHMKSHIRVQIDTLRMQDNGSQVDVTFEAVFNHNGRPKRYRARVRFEVHNGKAKSLTLKEDQ` . Value?
result: 0.265

query: Which protease stability score is listed for `DEDKKKHDLIHTFLTLQHNGDFKQLARMFDPNAKVRVGDKDIRGREQIEKMFEKVRESVDRVSVSLTHMDNHGDKVRMEARVTQHVNGRNHDFTITITFRQVGDKVRASHQSVS` ?
result: 0.584

More entries:
query: Would you mind telling me what protease stability score value was observed for `DDQDLAKRLLDQLTKALQHGDERQLQRLMDKDVRVHIGDKNIHGREQAATFWVHLRKHVDRLSVRVKHVDIQGERVVFDMVFVFNHNGRQEHVRVVIVAKKDGDKIRIKRASQN` ?
result: 2.16

query: Record request: protease stability score value, item `DEERAKQVADKVFKYAINGDEEKMQKQLDPNVEYKYADTEYEGEDAARAIVRLVKQVGMEVKTQRQEVKGNTMQADFRYHNGDKEVQTTARVEYEGDKVKKVEVKVTDEVKKEAHKG`
result: -0.068

query: Which protease stability score is listed for `DEHAHRQFKHYLDALKENNEEDLKKQMDKDAEAKYGNQELHGRDDAARHLKRELEEIRVDITEYRIRNQGNNIEAHVRFVVKHNGQPSKMTVLITASADENHMRTIEFDEKK` ?
result: 0.248
